Molecular target: IDH1^R132H homodimer enzyme (Homo sapiens, UniProt O75874, R132H)
Sequence (O75874 whole entry R132H): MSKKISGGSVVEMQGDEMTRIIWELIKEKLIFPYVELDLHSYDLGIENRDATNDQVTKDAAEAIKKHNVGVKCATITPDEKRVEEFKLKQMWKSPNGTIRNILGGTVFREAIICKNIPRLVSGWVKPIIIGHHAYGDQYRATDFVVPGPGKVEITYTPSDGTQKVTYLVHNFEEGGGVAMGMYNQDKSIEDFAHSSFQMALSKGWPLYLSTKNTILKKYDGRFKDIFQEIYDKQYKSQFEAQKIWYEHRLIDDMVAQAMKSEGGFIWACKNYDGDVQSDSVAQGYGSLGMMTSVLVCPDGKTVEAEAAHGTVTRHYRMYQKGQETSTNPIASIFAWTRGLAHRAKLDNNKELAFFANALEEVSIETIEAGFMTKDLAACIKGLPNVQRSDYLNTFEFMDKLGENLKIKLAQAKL
Test: NADPH depletion assay, IDH1 R132H
Experimental: IDH mutated enzyme activity converting alpha-ketoglutarate to 2-hydroxyglutaric acid is measured using a NADPH depletion assay. In the assay the remaining cofactor is measured at the end of the reaction with the addition of a catalytic excess of diaphorase and resazurin, to generate a fluorescent signal in proportion to the amount of NADPH remaining. […]
REPORTED PROPERTY: IC50 (nM)

A = C[C@H](Nc1ncc2ccc(=O)n(CC(C)(C)C)c2n1)c1ccc(C(=O)NC2CCC(F)(F)CC2)c(Cl)c1
B = C[C@H](Nc1ncc2ccc(=O)n(Cc3ccccc3F)c2n1)c1ccc(Cl)cc1
Field: lower recorded IC50 (choose A or B ) Mark your answer with the label of the selected entry.
A

a = C[C@H](Nc1ncc2ccc(=O)n(CC(C)(C)CO)c2n1)c1ccc2ccccc2c1
b = CC(C)[C@H](C)n1c(=O)ccc2cnc(N[C@@H](C)c3ccc(C4=CCN(C(=O)C5CC5)CC4)cn3)nc21
c = CCn1c(=O)ccc2cnc(N[C@@H](C)c3ccc(Cl)cc3)nc21
d = C[C@H](Nc1ncc2ccc(=O)n(CC(C)(C)C)c2n1)c1ccc(O)cc1
Rank descending by IC50. Hello, could you send the labels back in the order asked? Thank you.
d, c, b, a
(d: 3560 nM, c: 1740 nM, b: 593 nM, a: 137 nM)

* * *

Biological target: IDH1^R132H homodimer enzyme (Homo sapiens, UniProt O75874, R132H)
Experiment: NADPH depletion assay, IDH1 R132H
Protocol: IDH mutated enzyme activity converting alpha-ketoglutarate to 2-hydroxyglutaric acid is measured using a NADPH depletion assay. In the assay the remaining cofactor is measured at the end of the reaction with the addition of a catalytic excess of diaphorase and resazurin, to generate a fluorescent signal in proportion to the amount of NADPH remaining. […]
REPORTED PROPERTY: IC50 (nM)

# COMPOUND, IC50 / nM
measured = [
    ("COC(=O)c1ccc([C@H](C)Nc2ncc3ccc(=O)n(Cc4ccccc4)c3n2)cc1", 1830),
    ("C[C@H](Nc1ncc2ccc(=O)n(Cc3ccc(C#N)cc3)c2n1)c1ccc(Cl)cc1", 1070),
    ("C=CC(=O)N1CCN(C(=O)c2ccc([C@H](C)Nc3ncc4ccc(=O)n(CC)c4n3)cc2)CC1", 1940),
    ("CCn1c(=O)ccc2cnc(N[C@@H](C)C3CCCCC3)nc21", 3480),
    ("C[C@H](Nc1ncc2ccc(=O)n(CC(F)(F)F)c2n1)c1ccc(CN2CCC(F)(F)CC2)cc1", 1230),
]

P = C=CC(=O)N1CCN(Cc2ccc([C@H](C)Nc3ncc4ccc(=O)n(CC(C)(C)CO)c4n3)cc2)CC1
Q = COC(=O)c1ccc([C@H](C)Nc2ncc3ccc(=O)n(Cc4cc(F)cc(F)c4)c3n2)cc1
Recorded IC50 values differ for P and Q ; which one is higher? Identify your pick by its label.
Q

* * *

Molecular target: IDH1^R132C (Homo sapiens, UniProt O75874, R132C)
Sequence (O75874 whole entry R132C): as the sequence (O75874 whole entry R132H) above, with H132C counted along it
Assay: NADPH depletion assay, IDH1 R132C
REPORTED PROPERTY: IC50 (µM)

Solved cases (3 shown):
# COMPOUND, IC50 (µM)
records = [
    ("C[C@H](Nc1ncc2ccc(=O)n(CC(C)(C)C)c2n1)c1ccc(CN2CCOCC2)cc1 [cpd 110]", 0.104),
    ("C[C@@H]1CN(Cc2ccc([C@H](C)Nc3ncc4ccc(=O)n([C@@H](C)C(F)(F)F)c4n3)cc2)C[C@H](C)O1 [cpd 164]", 0.406),
    ("CC(C)[C@H](C)n1c(=O)ccc2cnc(N[C@@H](C)c3ccc(Br)cc3)nc21 [cpd 163]", 0.087),
]

a = CC(Nc1ncc2ccc(=O)n(CC(C)(C)C)c2n1)c1ccc(C(=O)NC2CCC(F)(F)CC2)c(Cl)c1 (centres unmarked) [cpd 82]
b = CC(C)[C@H](C)n1c(=O)ccc2cnc(N[C@@H](C)c3ccc(CN4CCOCC4)c(F)c3)nc21 [cpd 68]
Which value of IC50 is numerically greater: that of a or that of b ? Please indicate the selected item by its label.
a

P = COc1ccc([C@H](C)Nc2ncc3ccc(=O)n(CC(C)(C)C)c3n2)cc1 [cpd 33]
Q = C=CC(=O)N1CCN(C(CC)c2ccc([C@H](C)Nc3ncc4ccc(=O)n(CC)c4n3)cc2)CC1 (some centres unmarked) [cpd 214]
Which item exceeds the other in IC50, P or Q ? Write the label of whichever entry you select.
P
(P: 0.19 µM, Q: 0.002 µM)
